# Test system: HT29 colon
# assayDetails: NCI tumour cell line growth inhibition, 48 h
experimentalReadout: GI50

O=C(NC1CCCCC1)NS(=O)(=O)c1ccc(-n2nc3c(c2-c2ccc(Cl)cc2)Cc2ccccc2-3)cc1; 34.8 µM
COc1cc(/C=C2\C(=O)N(c3ccccc3)c3ccccc32)cc(OC)c1OC; 3.7 µM

Then this molecule:
State the recorded GI50 for this entry: COc1nc(N)nc2c1ncn2[C@@H]1O[C@H](CO)[C@@H](O)[C@@H]1O > 100 µM

---

Please provide measured TGI for the entries that follow.
# Test system: COLO 205 colon
# assayDetails: NCI tumour cell line growth inhibition, 48 h

CN=C(N)/N=C(\N)Nc1cc2ccccc2c2ccccc12; 28.2 µM
COc1cc([C@H]2CC(=O)C[C@@H](c3cc(OC)c(OC)c(OC)c3)C23C(=O)c2ccccc2C3=O)cc(OC)c1OC; > 100 µM
NCCCCN(CCCN)Cc1ccc2ccccc2c1; > 100 µM
CCOC(=O)N/N=C(\Cc1ccc([N+](=O)[O-])cc1)OCC; > 100 µM
CCOC(=O)c1c(Cl)c2c(n1Cc1cccc(OC)c1)-c1oncc1CC2; 11.3 µM

Return reported TGI values for all items listed beneath this line.
1. CC1=CC(=O)[C@@H](O)[C@]2(C)[C@H]3[C@@]4(O)OC[C@@]35[C@@H](C[C@@H]12)OC(=O)C(OC(=O)CC1=CCCC1)[C@H]5[C@@H](C)[C@H]4O (stereo partly drawn)
2. CC1(C)N=C(N)N=C(N)N1c1cccc(CCCCOc2ccccc2)c1

["0.724 µM", "14.4 µM"]

Return reported TGI values for all items listed beneath this line.
1. N#C/C(C(=S)Nc1ccccc1)=C(/N)N1CCCC1
2. COc1cc(-n2cnc(-c3ccc(Cl)cc3)c2)cc(OC)c1OC
3. COC(=O)C1(Cc2cccc(C)c2)Cc2c(C)cccc2C1=O (stereo not drawn)
4. CNC(=O)NC(CCCCNC(=O)OCc1ccccc1)C(=O)OCc1ccccc1 (stereo not drawn)
5. COC(=O)C1=C(c2ccc3c(c2)OCO3)OC(c2ccc3c(c2)OCO3)C1 (stereo not drawn)
6. CNS(=O)(=O)c1ccc2[nH]c(O)c(C3=Nc4ccccc4C3=O)c2c1

["> 100 µM", "29.8 µM", "> 100 µM", "34.2 µM", "> 100 µM", "> 100 µM"]

Return reported TGI values for all items listed beneath this line.
1. OCC1OC2OC3C(CO)OC(OC4C(CO)OC(OC5C(CO)OC(OC6C(CO)OC(OC7C(CO)OC(OC1C(O)C2O)C(O)C7O)C(O)C6O)C(O)C5O)C(O)C4O)C(O)C3O (stereo not drawn) (tested in a mixture with another compound)
2. NCCCNCCSSC/C=C\CSSCCNCCCN
3. CC1OC(OC2C(CO)OC(O[C@H]3CC[C@@]4(C)C(=CC[C@H]5[C@@H]6C[C@@H]7O[C@](O)(CC[C@H](C)COC8OC(CO)C(O)C(O)C8O)[C@@H](C)[C@@H]7[C@@]6(C)CC[C@@H]54)C3)C(OC3OC(C)C(O)C(O)C3O)C2O)C(O)C(O)C1O (stereo partly drawn)
4. Nc1cccc2c1C1=NNC(=O)CC1C2 (stereo not drawn)

["> 100 µM", "> 100 µM", "> 35.5 µM", "> 100 µM"]

State the recorded TGI for this entry: COc1cc(C2S/C(=C/c3ccccc3)C(=O)N2c2cc(Cl)c(Cl)cc2Cl)cc(OC)c1OC (stereo not drawn) > 100 µM

---

# System: HCT-15 colon
# assayDetails: NCI tumour cell line growth inhibition, 48 h
Please provide measured TGI for the entries that follow.

Recorded results for 2 molecules are shown here.
CC(=O)OC1Oc2cc(C)c(C)cc2-c2oc(=O)c(-c3ccc(F)cc3)cc21 (stereo not given); 19.1 µM
CN(C)C1=NC2=S(SC(Nc3ccccc3)=N2)S1 (stereo not given); > 100 µM

Return reported TGI values for all items listed beneath this line.
1. CCC1c2[nH]c3ccccc3c2C[C@H]2C(=O)NC(CCCCNC(=O)OC(C)(C)C)C(=O)N12 (stereo not given in full)
2. CS(=O)(=O)c1ccc(Oc2cc(F)cc(C#N)c2)c2c1[C@H](O)C(F)(F)C2
3. Oc1ccc(-c2cn3cc(Cl)sc3n2)cc1

1. > 100 µM
2. > 100 µM
3. > 100 µM

---

# Tested on: HCT-116 colon
# assayDetails: NCI tumour cell line growth inhibition, 48 h
experimentalReadout: TGI

CN(C)CCNC1=CC(=O)c2nc3ccccc3c3ccnc1c23; 14.8 µM
COc1cc(/C=C2\C(=O)N(c3ccccc3)c3ccccc32)cc(OC)c1OC; 12.4 µM
COC(=O)c1cc(C)ccc1C1CN=NC12Cc1cccc(C)c1C2=O (configuration not stated); 70.5 µM
CC(C)n1c(=O)n(C)c2cnc3cc(F)c(-c4ccc(OCCCN5CCCCC5)nc4)cc3c21; 27.4 µM
CC1=NC(C(C)C)C(=O)O1 (configuration not stated); 34.1 µM
CCCNC(=O)Cn1c(C)cc2ccccc21; > 100 µM
C(=NCCCN1CCN(CCCN=Cc2cccc3ccccc23)CC1)c1cccc2ccccc12; > 100 µM
CC(C)(C)C1(O)C=C(O)C(=O)N1NC(=O)c1ccccc1Nc1ccccc1 (configuration not stated); > 100 µM

Return reported TGI values for all items listed beneath this line.
1. CS(=O)(=O)c1ccc(Oc2cc(F)cc(C#N)c2)c2c1[C@H](O)C(F)(F)C2
2. COc1nc(N)nc2c1ncn2[C@@H]1O[C@H](CO)[C@@H](O)[C@@H]1O
3. Cc1cn([C@H]2C[C@@H]3[C@@H](COC(CCl)N3O)O2)c(=O)[nH]c1=O (some centres not stated)
4. O=C(Nc1sccc1S(=O)(=O)c1ccc(Cl)cc1)c1ccccc1

["> 100 µM", "> 100 µM", "> 100 µM", "> 100 µM"]

Return reported TGI values for all items listed beneath this line.
1. N#CCCOCN(CO)c1nc(N(CO)COCCC#N)nc(N(CO)COCCC#N)n1
2. COc1ccc(CCN2CCC(Nc3nc4ccccc4n3Cc3ccc(F)cc3)CC2)cc1

["63.8 µM", "2.44 µM"]

---

Please provide measured TGI for the entries that follow.
# System: U251 CNS
# assayDetails: NCI tumour cell line growth inhibition, 48 h
Where a SMILES comes first, the peptide text is derived from it. [ ]: non-standard residue; d: D form. The star is where a group is joined. NMeF = CN[C@@H](Cc1ccccc1)C(=O)O; NMeV = CN[C@H](C(=O)O)C(C)C; Boc = CC(C)(C)OC(=O)*; OBn = c1ccc(CO*)cc1

Recorded results for 3 compounds are shown here.
CC[C@@H]1CC[C@@H]2[C@H](CC[C@]3(C)[C@@H](O)CC[C@@H]23)[C@H]1CO; > 100 µM
Cc1c(NC(=O)c2cc([N+](=O)[O-])cc([N+](=O)[O-])c2)c(=O)n(-c2ccccc2)n1C; > 100 µM
COc1ccc(-c2nn(-c3cccc(NC(=O)c4cccc(C(F)(F)F)c4)c3)cc2-c2ccncc2)cc1Cl; 17.6 µM

Return reported TGI values for all items listed beneath this line.
1. Oc1ccc(-c2cn3cc(Cl)sc3n2)cc1
2. C/C(=N/c1[nH]c(=O)cc2c1C(=O)CC2)N(C)C
3. COc1ccc(C(=O)C(C(=O)C(=O)NC2C3CC4CC(C3)CC2C4)c2ccc(OC)cc2)cc1 (stereo not drawn)

["> 100 µM", "> 200 µM", "> 100 µM"]

Return reported TGI values for all items listed beneath this line.
1. CC(C)[C@@H](C(=O)N1CCC[C@H]1C(=O)OCc1ccccc1)N(C)C(=O)[C@H](C(C)C)N(C)C(=O)[C@H](Cc1ccccc1)N(C)C(=O)[C@H](NC(=O)OC(C)(C)C)C(C)C (Boc-[dV][NMeF][NMeV][NMeV]P-OBn)
2. Cc1cc(C)c2nc3nc(C)cc(C)c3c(N)c2c1
3. CC1OC(OC2C(CO)OC(O[C@H]3CC[C@@]4(C)C(=CC[C@H]5[C@@H]6C[C@@H]7O[C@](O)(CC[C@H](C)COC8OC(CO)C(O)C(O)C8O)[C@@H](C)[C@@H]7[C@@]6(C)CC[C@@H]54)C3)C(OC3OC(C)C(O)C(O)C3O)C2O)C(O)C(O)C1O (stereo partly drawn)

1. > 100 µM
2. 26.1 µM
3. > 33 µM

Return reported TGI values for all items listed beneath this line.
1. CC1=NN(c2cccc(Cl)c2)C(=N/c2nc3ccccc3s2)/C1=C\c1cccs1
2. CCOC(=O)c1c(Cl)c2c(n1Cc1cccc(OC)c1)-c1oncc1CC2
3. NCCCNCCSSC/C=C\CSSCCNCCCN
4. O=C(O)c1c[nH]c2c(OCc3ccccc3)c3ccccc3c(O)c2c1=O
5. CCCCCCCCCCCCCCCCCC(=O)OCC(C[As](=O)(O)O)OC(=O)CCCCCCCCCCCCCCCCC (stereo not drawn)

1: 60.2 µM; 2: > 100 µM; 3: > 100 µM; 4: 5.19 µM; 5: > 100 µM

Return reported TGI values for all items listed beneath this line.
1. CCN(CC)CCCCNc1ncc2cc(-c3cc(OC)cc(OC)c3)c(NC(=O)NC(C)(C)C)nc2n1
2. O=C(c1nc2ccc(Cl)cc2[nH]c1=O)C(O)c1ccc2c(c1)OCO2 (stereo not drawn)
3. C=C(C)[C@H]1C[C@@H]2O[C@@](O)(/C(C)=C\C(=O)/C=C(/C)C[C@H]3OC(=O)[C@@]24O[C@H]34)[C@@H]1O
4. O=C(Cc1ccccc1)NC(c1ccc(Cl)cc1)c1c(O)ccc2ccccc12 (stereo not drawn)

["17.5 µM", "> 100 µM", "> 100 µM", "6.94 µM"]

Entry source: PubChem BioAssay (NCI)
